assay: RP, Waters ACQUITY UPLC BEH C18, 100 × 1 mm, 1.7 µm, 50 °C, 0.3 mL/min, estimated dead time 0.17 min; A: water + 10 mM ammonium bicarbonate; B: 10% water + 90% methanol + 10 mM ammonium bicarbonate; gradient (min/%B) 0/0 15/100 21/100 22/0 30/0; conditions: stereoisomer not certain
assay-readout: LC retention time

COC1C=COC2(C)Oc3c(C)c(O)c4c(O)c(c5c(nc6cc(C)ccn65)c4c3C2=O)NC(=O)C(C)=CC=CC(C)C(O)C(C)C(O)C(C)C(OC(C)=O)C1C (configuration not stated) ... 14.6 min
CC(N)C(O)c1ccccc1 (configuration not stated) ... 8.36 min
O=P(O)(Oc1ccccc1)Oc1ccccc1 [Diphenylphosphate] ... 10.9 min
CCNc1nc(NC(C)CC)[nH]c(=O)n1 (configuration not stated) [Sebuthylazine-2-hydroxy] ... 12 min
CCC(C)C1OC2(C=CC1C)CC1CC(CC=C(C)C(OC3CC(OC)C(OC4CC(OC)C(NC(C)=O)C(C)O4)C(C)O3)C(C)C=CC=C3COC4C(O)C(C)=CC(C(=O)O1)C34O)O2 (configuration not stated) ... 18.3 min
CNC(=O)Oc1cccc2c1OC(C)(C)O2 ... 11.9 min
CS(=O)(=O)OCC(O)C(O)COS(C)(=O)=O (configuration not stated) ... 3.77 min
